# Protocol Text: Aqueous chemical stability, 50 mM phosphate buffer pH 8, HPLC-UV (Table 4)
# Assay type: physicochemical
# Assay Setup: 50 mM buffer phosphate pH 8, 37° C., HPLC UV 211 nm
Where a name gives a salt, the structure may show the parent alone.
Binary classification by pH 8 (t ½, min), with 100 min as an inclusive lower bound for true; all other cases are false.

Look over these answered cases.
COC(=O)/C=C/C(=O)OCCN(C)C [Compound 19, fumarate hydrochloride] :: true
COC(=O)/C=C/C(=O)OCCN(C(C)=O)C(C)=O [Compound 44] :: true
COC(=O)/C=C/C(=O)OCCNC(C)=O [Compound 43, 2-Acetamidoethyl methyl fumarate] :: true

Request: Answer whether pH 8 (t ½, min) of COC(=O)/C=C/C(=O)OCCN1C(=O)NC(C)(C)C1=O [Compound 40] is greater than or equal to 100 min.
Response: true

Request: Answer whether pH 8 (t ½, min) of COC(=O)/C=C/C(=O)OCCCN1C(=O)CCC1=O [Compound 133] is greater than or equal to 100 min.
Response: true
